Observed pIC50 values for Human immunodeficiency virus type 1 integrase (Human immunodeficiency virus 1) are listed in what follows.
pIC50: −log10 of the molar value.

Worked cases, pIC50 given:
{"molecule": "CC(=O)Oc1ccc(/C=C/C(=O)OCCOC(=O)/C=C/c2ccc(OC(C)=O)c(OC(C)=O)c2)cc1OC(C)=O", "experimental.target": "Human immunodeficiency virus type 1 integrase (Human immunodeficiency virus 1)", "pIC50": "< 4.00"}
{"molecule": "CC(=O)Oc1ccc(/C=C/C(=O)OCCCOC(=O)/C=C/c2ccc(OC(C)=O)c(OC(C)=O)c2)cc1OC(C)=O", "experimental.target": "Human immunodeficiency virus type 1 integrase (Human immunodeficiency virus 1)", "pIC50": "< 3.48"}
{"molecule": "COC(=O)C(COC(=O)/C=C/c1ccc(OC(C)=O)c(OC(C)=O)c1)NC(C)=O (configuration not stated)", "experimental.target": "Human immunodeficiency virus type 1 integrase (Human immunodeficiency virus 1)", "pIC50": "< 3.48"}

Q: Suppose we examine the molecule COc1ccc(/C=C/C(=O)NC[C@@H](NC(=O)/C=C/c2ccc(OC)c(OC)c2)C(=O)O)cc1OC ; what pIC50 value has been reported?
Result: < 3.00

Q: Suppose we examine the molecule CC(=O)Oc1ccc(/C=C/C(=O)O[C@H]2CCCC[C@@H]2OC(=O)/C=C/c2ccc(OC(C)=O)c(OC(C)=O)c2)cc1OC(C)=O ; what pIC50 value has been reported?
Result: < 3.48

Q: Suppose we examine the molecule CC(=O)Oc1ccc(/C=C/C(=O)O[C@@H](C)[C@H](C)OC(=O)/C=C/c2ccc(OC(C)=O)c(OC(C)=O)c2)cc1OC(C)=O ; what pIC50 value has been reported?
Result: < 3.48

Q: Suppose we examine the molecule COC(=O)[C@@H](CNC(=O)/C=C/c1ccc(OC)c(OC)c1)NC(=O)/C=C/c1ccc(OC)c(OC)c1 ; what pIC50 value has been reported?
Result: < 3.00
